molecular target: glucocorticoid receptor (GR) (Homo sapiens)
Sequence (P04150 whole entry, species assumed): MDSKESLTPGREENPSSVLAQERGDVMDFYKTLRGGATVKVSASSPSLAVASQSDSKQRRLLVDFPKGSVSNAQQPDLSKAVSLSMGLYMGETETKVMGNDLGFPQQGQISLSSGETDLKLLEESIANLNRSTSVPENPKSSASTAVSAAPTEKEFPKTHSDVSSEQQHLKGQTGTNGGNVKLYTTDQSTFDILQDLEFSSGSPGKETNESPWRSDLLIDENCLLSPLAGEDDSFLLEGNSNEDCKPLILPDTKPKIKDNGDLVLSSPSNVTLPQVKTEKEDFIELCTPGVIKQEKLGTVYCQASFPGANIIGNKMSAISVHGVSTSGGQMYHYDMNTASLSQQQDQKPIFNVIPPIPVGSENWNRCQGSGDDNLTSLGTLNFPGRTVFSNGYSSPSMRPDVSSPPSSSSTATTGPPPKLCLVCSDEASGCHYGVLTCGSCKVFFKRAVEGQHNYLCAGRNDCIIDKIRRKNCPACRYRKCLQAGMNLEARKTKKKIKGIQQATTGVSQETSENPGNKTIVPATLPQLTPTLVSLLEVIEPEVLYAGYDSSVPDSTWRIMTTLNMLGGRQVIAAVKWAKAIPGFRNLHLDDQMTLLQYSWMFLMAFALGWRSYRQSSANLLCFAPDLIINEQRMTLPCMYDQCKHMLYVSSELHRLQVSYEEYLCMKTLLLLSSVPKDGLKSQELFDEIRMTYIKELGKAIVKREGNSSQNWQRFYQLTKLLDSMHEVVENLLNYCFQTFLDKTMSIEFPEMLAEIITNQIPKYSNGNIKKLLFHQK
pIC50: −log10 of the molar value.

Molecule: CC(C)(CC(O)(CNc1cccc2ncccc12)C(F)(F)F)c1cc(F)ccc1O (stereo not shown) [Example 4]
pIC50: 8.89 to 9.22

###

Target: mineral corticoid receptor (MR) (Homo sapiens, UniProt P08235)
Sequence (P08235 1-984): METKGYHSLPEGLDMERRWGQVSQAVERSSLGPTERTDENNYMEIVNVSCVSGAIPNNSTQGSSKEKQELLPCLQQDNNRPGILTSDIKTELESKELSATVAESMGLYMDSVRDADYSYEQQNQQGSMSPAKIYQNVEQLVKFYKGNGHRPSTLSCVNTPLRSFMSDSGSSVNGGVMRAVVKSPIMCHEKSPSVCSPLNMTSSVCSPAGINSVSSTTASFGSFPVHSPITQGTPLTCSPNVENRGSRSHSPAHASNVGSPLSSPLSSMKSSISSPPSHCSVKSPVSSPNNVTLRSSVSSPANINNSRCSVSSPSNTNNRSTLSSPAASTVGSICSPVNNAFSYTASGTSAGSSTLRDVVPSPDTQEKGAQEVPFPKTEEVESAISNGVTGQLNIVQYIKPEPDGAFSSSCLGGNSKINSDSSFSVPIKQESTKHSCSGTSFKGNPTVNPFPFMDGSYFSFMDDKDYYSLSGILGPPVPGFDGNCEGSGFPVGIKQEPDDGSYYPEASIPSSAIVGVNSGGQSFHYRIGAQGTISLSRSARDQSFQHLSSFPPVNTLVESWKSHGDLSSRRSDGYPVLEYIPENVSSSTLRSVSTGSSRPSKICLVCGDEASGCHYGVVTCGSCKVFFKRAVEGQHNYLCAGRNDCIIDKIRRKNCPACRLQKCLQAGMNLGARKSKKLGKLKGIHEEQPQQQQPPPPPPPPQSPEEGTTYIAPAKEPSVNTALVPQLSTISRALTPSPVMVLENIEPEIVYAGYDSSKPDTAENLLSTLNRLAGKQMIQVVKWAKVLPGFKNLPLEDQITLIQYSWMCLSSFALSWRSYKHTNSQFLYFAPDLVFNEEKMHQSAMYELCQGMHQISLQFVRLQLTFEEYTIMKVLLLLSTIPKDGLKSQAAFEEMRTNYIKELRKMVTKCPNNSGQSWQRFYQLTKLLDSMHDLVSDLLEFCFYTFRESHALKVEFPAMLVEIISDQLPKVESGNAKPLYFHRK
Test: Binding to the mineral corticoid receptor, recombinantly produced receptor
pIC50: −log10 of the molar value.
Readout name: pIC50

Compound: CC(C)(CC(O)(CNc1cccc2ncccc12)C(F)(F)F)c1cc(F)ccc1O (stereo not shown)
Value observed: < 6.00

###

molecular target: UniProt:P06401; experiment: Binding to the progesterone receptor, recombinantly produced receptor
Sequence (P06401 whole entry, species assumed): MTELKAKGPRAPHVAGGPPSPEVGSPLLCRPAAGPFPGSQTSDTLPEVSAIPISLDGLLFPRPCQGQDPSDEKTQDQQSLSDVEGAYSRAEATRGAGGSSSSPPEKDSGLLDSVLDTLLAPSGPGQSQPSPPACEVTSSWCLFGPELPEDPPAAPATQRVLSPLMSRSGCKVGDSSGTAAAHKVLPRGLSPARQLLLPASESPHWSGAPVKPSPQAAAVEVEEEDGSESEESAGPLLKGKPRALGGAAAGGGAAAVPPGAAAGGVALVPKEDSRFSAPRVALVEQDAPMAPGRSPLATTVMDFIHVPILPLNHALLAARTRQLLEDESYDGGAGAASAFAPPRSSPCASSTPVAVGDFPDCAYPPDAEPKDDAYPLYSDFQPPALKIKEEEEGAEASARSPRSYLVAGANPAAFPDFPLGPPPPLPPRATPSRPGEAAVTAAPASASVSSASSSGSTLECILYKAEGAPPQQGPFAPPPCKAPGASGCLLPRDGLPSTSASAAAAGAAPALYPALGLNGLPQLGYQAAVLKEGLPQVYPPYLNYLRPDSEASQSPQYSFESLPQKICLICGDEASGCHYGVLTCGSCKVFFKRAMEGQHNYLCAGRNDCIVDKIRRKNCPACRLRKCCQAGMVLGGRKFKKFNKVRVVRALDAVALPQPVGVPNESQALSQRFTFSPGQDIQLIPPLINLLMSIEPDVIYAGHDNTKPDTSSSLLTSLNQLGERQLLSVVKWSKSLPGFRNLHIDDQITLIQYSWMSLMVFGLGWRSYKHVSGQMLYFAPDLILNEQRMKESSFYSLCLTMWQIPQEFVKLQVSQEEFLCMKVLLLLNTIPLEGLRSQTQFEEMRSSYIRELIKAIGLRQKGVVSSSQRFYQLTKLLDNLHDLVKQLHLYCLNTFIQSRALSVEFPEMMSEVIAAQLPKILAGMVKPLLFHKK

Compound: CC(C)(CC(O)(CNc1cccc2ncccc12)C(F)(F)F)c1cc(F)ccc1O (stereo not shown)
Target or test system: UniProt:P06401
IC50: > 1000 nM

###

molecular target: androgen receptor (AR) (Homo sapiens, UniProt P10275); assay: Binding to the androgen receptor, recombinantly produced receptor
Sequence (P10275 whole entry, species assumed): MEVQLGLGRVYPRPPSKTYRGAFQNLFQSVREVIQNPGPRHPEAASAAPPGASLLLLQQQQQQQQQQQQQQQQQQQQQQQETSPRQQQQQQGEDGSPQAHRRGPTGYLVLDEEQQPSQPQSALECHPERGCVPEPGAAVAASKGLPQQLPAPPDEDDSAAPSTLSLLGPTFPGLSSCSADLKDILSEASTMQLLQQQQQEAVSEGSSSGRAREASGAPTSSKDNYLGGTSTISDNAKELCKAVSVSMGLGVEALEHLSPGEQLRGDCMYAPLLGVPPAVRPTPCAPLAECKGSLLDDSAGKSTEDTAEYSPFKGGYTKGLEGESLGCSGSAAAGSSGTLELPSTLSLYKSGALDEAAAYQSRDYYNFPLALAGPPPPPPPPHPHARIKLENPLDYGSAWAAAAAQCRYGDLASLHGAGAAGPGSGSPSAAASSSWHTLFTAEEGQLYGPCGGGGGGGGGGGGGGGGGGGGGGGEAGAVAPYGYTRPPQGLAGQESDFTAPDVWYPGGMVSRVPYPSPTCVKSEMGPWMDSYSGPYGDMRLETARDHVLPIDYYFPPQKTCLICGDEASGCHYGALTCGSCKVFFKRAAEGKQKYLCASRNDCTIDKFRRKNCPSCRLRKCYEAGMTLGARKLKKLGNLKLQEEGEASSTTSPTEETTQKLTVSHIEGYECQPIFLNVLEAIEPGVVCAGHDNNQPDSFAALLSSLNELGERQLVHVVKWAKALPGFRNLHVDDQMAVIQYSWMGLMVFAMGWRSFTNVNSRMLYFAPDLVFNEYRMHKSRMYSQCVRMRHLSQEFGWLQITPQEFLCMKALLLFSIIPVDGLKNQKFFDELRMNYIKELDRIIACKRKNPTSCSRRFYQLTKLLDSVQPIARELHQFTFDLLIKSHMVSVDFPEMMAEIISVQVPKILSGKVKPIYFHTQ

Molecule: CC(C)(CC(O)(CNc1cccc2ncccc12)C(F)(F)F)c1cc(F)ccc1O (stereo not shown)
IC50: > 1000 nM
